System: VERO (ATCC CCL-81) normal epithelial cells
Experiment description: VERO cell cytotoxicity (resazurin)
Reported conditions: read-out: Cytotoxicity IC50 VERO cells; 24 h incubation; called CC50 in methods
Readout kind: pIC50
In plain terms, pIC50 is the concentration in mol/L turned into minus its base-10 logarithm.

| Molecule | Experimental system | Readout kind | Reported value |
| --- | --- | --- | --- |
| O.O.O.O.O=C([O-])c1cccc(C(=O)[O-])c1.O=C([O-])c1cccc(C(=O)[O-])c1.[Mn+2].[Mn+2].c1cnc2c(c1)ccc1cccnc12.c1cnc2c(c1)ccc1cccnc12.c1cnc2c(c1)ccc1cccnc12 [compound 7, [Mn2(isoph)2(phen)3]·4H2O] | VERO (ATCC CCL-81) normal epithelial cells | pIC50 | 3.92 |
| [Cl-].[Cl-].[Mn+2] [MnCl2·2H2O, reference compound] | VERO (ATCC CCL-81) normal epithelial cells | pIC50 | 3.25 |

We next turn to a different molecule, shown below.
INPUT: Find pIC50 (VERO (ATCC CCL-81) normal epithelial cells) for the entry O.O.O.O.O.O.O.O.O.O.O.O.O.O.O.O.O=C([O-])c1cccc(C(=O)[O-])c1.O=C([O-])c1cccc(C(=O)[O-])c1.[Mn+2].[Mn+2].c1cnc2c(c1)ccc1cccnc12.c1cnc2c(c1)ccc1cccnc12.c1cnc2c(c1)ccc1cccnc12.c1cnc2c(c1)ccc1cccnc12.c1cnc2c(c1)ccc1cccnc12 [compound 8, {[Mn(phen)2(H2O)2]}2(isoph)2(phen)·12H2O]
OUTPUT: 4.54
